Origin of values: ChEMBL document CHEMBL4028872

Target: GABA transporter 3 (Mus musculus, UniProt P31649)
Sequence (P31649 whole entry): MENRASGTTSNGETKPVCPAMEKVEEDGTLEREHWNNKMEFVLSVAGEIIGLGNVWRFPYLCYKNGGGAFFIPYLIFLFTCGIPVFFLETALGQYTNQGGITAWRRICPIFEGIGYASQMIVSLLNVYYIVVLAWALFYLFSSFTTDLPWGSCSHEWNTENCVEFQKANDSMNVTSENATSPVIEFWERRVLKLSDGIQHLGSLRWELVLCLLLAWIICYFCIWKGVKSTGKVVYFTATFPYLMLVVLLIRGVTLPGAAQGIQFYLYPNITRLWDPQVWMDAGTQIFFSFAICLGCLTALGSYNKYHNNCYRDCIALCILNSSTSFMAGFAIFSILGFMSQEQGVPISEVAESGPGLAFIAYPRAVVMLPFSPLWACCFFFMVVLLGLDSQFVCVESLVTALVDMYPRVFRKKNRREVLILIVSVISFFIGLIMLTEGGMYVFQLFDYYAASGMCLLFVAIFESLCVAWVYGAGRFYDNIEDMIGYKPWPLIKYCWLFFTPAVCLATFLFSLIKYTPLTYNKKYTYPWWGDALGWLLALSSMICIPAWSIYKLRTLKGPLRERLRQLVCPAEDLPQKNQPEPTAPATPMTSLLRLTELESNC
Experiment: Inhibition of mouse GAT2 expressed in HEK293 cells assessed as reduction in [3H]GABA uptake after 3 mins by scintillation counting method
readout: IC50

Query O=C(NC1CCN(Cc2ccccc2)CC1)c1cccs1 on GABA transporter 3 (Mus musculus, UniProt P31649); IC50 returned: > 400 µM

Let me check: COc1cccc(CN2CCC(NC(=O)c3ccc(Cl)cc3Cl)CC2)c1 , system GABA transporter 3 (Mus musculus, UniProt P31649), measured IC50 is > 200 µM

CCOc1cccc(CN2CCC(NC(=O)c3ccc(Cl)nc3Cl)CC2)c1 tested on GABA transporter 3 (Mus musculus, UniProt P31649) gave IC50: > 300 µM

GABA transporter 3 (Mus musculus, UniProt P31649) data for O=C(O)c1cccc(CN2CCC(NC(=O)c3ccc(Cl)nc3Cl)CC2)c1 ; its IC50: > 300 µM

Bench note, GABA transporter 3 (Mus musculus, UniProt P31649): entry O=C(NC1CCN(Cc2ccccc2)CC1)c1cccnc1 , its IC50 = > 1000 µM

Sample O=C(NC1CCN(Cc2ccccc2)CC1)c1c(Cl)cc(Cl)cc1Cl , system: GABA transporter 3 (Mus musculus, UniProt P31649). Its IC50 is 1700 µM

Field IC50 (GABA transporter 3 (Mus musculus, UniProt P31649)), entry COc1cccc(CN2CCC(NC(=O)c3ccc(Cl)nc3Cl)CC2)c1 : > 300 µM

Known value: GABA transporter 3 (Mus musculus, UniProt P31649) IC50 of the compound O=C(OC1CCN(Cc2ccccc2)CC1)c1ccccc1 equals 349 µM

Entry O=C(NC1CCN(Cc2ccccc2)CC1)c1cnccc1Cl : IC50 on GABA transporter 3 (Mus musculus, UniProt P31649) = 150 µM

Summary: O=C(NC1CCN(Cc2ccc3c(c2)OCO3)CC1)c1ccc(Cl)nc1Cl , GABA transporter 3 (Mus musculus, UniProt P31649), IC50 = > 300 µM

Field IC50 (GABA transporter 3 (Mus musculus, UniProt P31649)), entry COc1cccc(CN2CCC(NC(=O)c3ccc(Cl)nc3)CC2)c1 : 540 µM

Hey, GABA transporter 3 (Mus musculus, UniProt P31649) data for O=C(NC1CCN(Cc2ccccc2)CC1)c1ccnc(Cl)c1 : IC50 came out at > 1000 µM

Log: GABA transporter 3 (Mus musculus, UniProt P31649), compound O=C(NC1CCN(Cc2cccs2)CC1)c1ccc(Cl)nc1Cl , IC50 = > 300 µM

Entry O=C(NC1CCN(Cc2ccccc2)CC1)c1ccc(Cl)cc1 , tested on GABA transporter 3 (Mus musculus, UniProt P31649), has a reported IC50 of 590 µM

Entry O=C(NC1CCN(Cc2ccccc2)CC1)c1ccc(Cl)cc1Cl under GABA transporter 3 (Mus musculus, UniProt P31649) had IC50 of > 200 µM

Assay GABA transporter 3 (Mus musculus, UniProt P31649), sample COc1cccc(CN2CCC(NC(=O)c3cccnc3)CC2)c1 , IC50 read: > 1000 µM

Item: O=C(NC1CCN(Cc2ccc(-c3ccccc3)cc2)CC1)c1ccc(Cl)nc1Cl | System: GABA transporter 3 (Mus musculus, UniProt P31649) | IC50: > 300 µM

O=C(NC1CCN(Cc2cc(Cl)cc(Cl)c2)CC1)c1ccc(Cl)cc1Cl tested on GABA transporter 3 (Mus musculus, UniProt P31649) gave IC50: > 300 µM

Entry Clc1ccc(CNC2CCN(Cc3ccccc3)CC2)c(Cl)c1 : IC50 on GABA transporter 3 (Mus musculus, UniProt P31649) = > 400 µM

The observed IC50 for O=C(OC1CCN(Cc2ccccc2)CC1)c1ccc(Cl)cc1Cl when tested with GABA transporter 3 (Mus musculus, UniProt P31649) stands at > 1000 µM

For the compound O=C(NC1CCN(Cc2cccc(OCCO)c2)CC1)c1ccc(Cl)nc1Cl , the measured IC50 on GABA transporter 3 (Mus musculus, UniProt P31649) was > 300 µM

Assay GABA transporter 3 (Mus musculus, UniProt P31649), sample O=C(NC1CCN(Cc2ccccc2)CC1)c1ccc(Cl)nc1Cl , IC50 read: > 400 µM

Form field, IC50 with GABA transporter 3 (Mus musculus, UniProt P31649), item O=C(NC1CCN(Cc2cccc(F)c2)CC1)c1ccc(Cl)cc1Cl : > 1000 µM

Let me check: COc1cccc(CN2CCC(NC(=O)c3cccs3)CC2)c1 , system GABA transporter 3 (Mus musculus, UniProt P31649), measured IC50 is > 400 µM

Test item NC(=O)c1cccc(CN2CCC(NC(=O)c3ccc(Cl)nc3Cl)CC2)c1 ; GABA transporter 3 (Mus musculus, UniProt P31649); reported IC50 was > 300 µM

---

molecular target: Sodium- and chloride-dependent GABA transporter 3 (Homo sapiens, UniProt P48066); assay: Inhibition of human GAT3 expresses in tsA201 cells assessed as reduction in [3H]GABA uptake after 3 mins by scintillation counting method; assay type: cell-based; conditions: read-out: IC50
Sequence (P48066 whole entry): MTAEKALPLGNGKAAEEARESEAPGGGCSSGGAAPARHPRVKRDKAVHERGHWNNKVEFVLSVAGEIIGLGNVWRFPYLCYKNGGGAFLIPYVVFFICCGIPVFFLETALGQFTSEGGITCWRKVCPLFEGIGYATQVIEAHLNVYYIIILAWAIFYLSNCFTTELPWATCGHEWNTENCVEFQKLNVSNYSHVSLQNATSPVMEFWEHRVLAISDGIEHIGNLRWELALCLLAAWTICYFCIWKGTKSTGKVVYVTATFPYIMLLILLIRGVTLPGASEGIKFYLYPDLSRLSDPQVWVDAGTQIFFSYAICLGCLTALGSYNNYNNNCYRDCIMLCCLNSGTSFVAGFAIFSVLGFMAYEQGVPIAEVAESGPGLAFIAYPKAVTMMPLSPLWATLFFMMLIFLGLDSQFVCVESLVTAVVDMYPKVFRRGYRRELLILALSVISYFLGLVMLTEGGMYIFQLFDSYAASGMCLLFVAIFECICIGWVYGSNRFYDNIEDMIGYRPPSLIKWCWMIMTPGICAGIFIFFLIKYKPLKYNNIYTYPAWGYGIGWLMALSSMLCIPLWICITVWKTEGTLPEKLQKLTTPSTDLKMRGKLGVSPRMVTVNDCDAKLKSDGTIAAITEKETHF
pIC50: −log10 of the molar value.
For each of the molecules below, state its pIC50.

Notebook: O=C(NC1CCN(Cc2ccccc2)CC1)c1cccc(C(F)(F)F)c1 , pIC50 read as < 3.30

Notebook: O=C(NC1CCN(Cc2ccccc2[N+](=O)[O-])CC1)c1ccc(Cl)cc1Cl , pIC50 read as < 4.00

For reference, reported pIC50 for CCCN1CCC(NC(=O)c2ccc(Cl)cc2Cl)CC1 stands at < 3.00

pIC50 measured on O=C(NC1CCNCC1)c1ccc(Cl)cc1Cl = < 3.00

// sample N#Cc1ccc(CN2CCC(NC(=O)c3ccc(Cl)cc3Cl)CC2)cc1 , its pIC50 was < 4.30

For this molecule ( CC(C)C(=O)NC1CCN(Cc2ccccc2)CC1 ), measured pIC50 is < 3.00

Quick note, pIC50 for N#Cc1ccccc1CN1CCC(NC(=O)c2ccc(Cl)cc2Cl)CC1 landed at < 4.30

O=C(NC1CCN(Cc2ccccc2)CC1)c1ccc(F)cc1 yielded pIC50 of < 3.52

Recorded pIC50 (molecule CC(C)(C)OC(=O)CN1CCC(NC(=O)c2ccc(Cl)cc2Cl)CC1 ): < 3.00

Note to self: pIC50 recorded for O=C(NC1CCN(Cc2ccc(I)cc2)CC1)c1ccc(Cl)cc1Cl was < 4.00

Documented pIC50 of N#CCCCN1CCC(NC(=O)c2ccc(Cl)cc2Cl)CC1 : < 3.00

Form field pIC50, entry CCOc1ccccc1C(=O)NC1CCN(Cc2ccccc2)CC1 : < 3.30

---

target: Sodium- and chloride-dependent GABA transporter 1 (Mus musculus); assay: Inhibition of mouse GAT1 expressed in HEK293 cells assessed as reduction in [3H]GABA uptake after 3 mins by scintillation counting method
readout: IC50

Field IC50 (entry O=C(NC1CCN(Cc2cccc([N+](=O)[O-])c2)CC1)c1ccc(Cl)nc1Cl ) reads > 300 µM

// O=C(O)c1cccc(CN2CCC(NC(=O)c3ccc(Cl)nc3Cl)CC2)c1 : IC50 value = > 300 µM

Value of measured IC50 for the entry COc1cccc(CN2CCC(NC(=O)c3cccnc3)CC2)c1 : > 1000 µM

Notebook: O=C(NC1CCN(Cc2ccc3c(c2)OCO3)CC1)c1ccc(Cl)nc1Cl , IC50 read as > 300 µM

Sample NC(=O)c1cccc(CN2CCC(NC(=O)c3ccc(Cl)nc3Cl)CC2)c1 ; IC50 observed: > 300 µM

Reported IC50 ( COc1cccc(CN2CCC(NC(=O)c3ccc(Cl)cc3Cl)CC2)c1 ) = > 200 µM

IC50 reported for this compound O=C(NC1CCN(Cc2ccccc2)CC1)c1ccncc1 : > 1000 µM

Quick note, IC50 for O=C(NC1CCN(Cc2cccs2)CC1)c1ccc(Cl)nc1Cl landed at > 300 µM

Given item O=C(NC1CCN(Cc2ccccc2)CC1)c1cccs1 , the value recorded as its IC50 is > 400 µM

Entry COc1cccc(CN2CCC(NC(=O)c3ccc(Cl)nc3)CC2)c1 — recorded IC50 = > 1000 µM

Form field IC50, entry O=C(NC1CCN(Cc2ccccc2)CC1)c1cccnc1 : > 1000 µM
